# protocol: Photostability test according to ICH Q1B
# Format: physicochemical
# cond: Exposure, 0.5 ICH (5-day)
quantity kind: Chemical purity (%)
Respond with the bare value in %.

The following compounds have reported results that may help.
Cc1ncc(-c2nc(-c3ccccc3)c(NC(=O)N[C@@H]3c4ccccc4C(C)(C)C[C@H]3O)cc2C)cn1 [Example 5] ... 99.7
Cc1ncc(-c2nc(-c3ccccc3)c(NC(=O)N[C@@H]3c4ccccc4C(C)(C)C[C@H]3O)cc2C)cn1 [Example 3] ... 100.0
Cc1ncc(-c2nc(-c3ccccc3)c(NC(=O)N[C@@H]3c4ccccc4C(C)(C)C[C@H]3O)cc2C)cn1 [Example 2] ... 99.2

Please examine the following record next.
Input: Need Chemical purity (%) of Cc1ncc(-c2nc(-c3ccccc3)c(NC(=O)N[C@@H]3c4ccccc4C(C)(C)C[C@H]3O)cc2C)cn1 [Example 4] , thanks.
Output: 99.8
